Method notes: Cytotoxicity against human A549 cells assessed as inhibition of cell proliferation after 48 hrs by MTT assay
Type: functional, cell-based
Reported conditions: A549, 48 h
Quick reference for IC50 among some compounds

1) CCCCCC(=O)O[C@@H]1C[C@]2(C)C(=CC[C@H]2[C@]2(O)C[C@@H]([C@@H](O)C(C)(C)O)O[C@H]2OC)[C@]2(C)[C@H](O)C[C@H]3C(C)(C)C(=O)C=C[C@]3(C)[C@@H]12
> 10 µM
2) CCO[C@@H]1O[C@@H](C=C(C)C)C[C@H]1[C@@H]1CC[C@]2(C)C3=CC[C@H]4C(C)(C)[C@@H](O)CC[C@]4(C)[C@H]3CC[C@@]12C
8.3 µM
3) CCO[C@H]1O[C@H](C=C(C)C)C[C@H]1[C@@H]1CC[C@]2(C)C3=CC[C@H]4C(C)(C)[C@@H](O)CC[C@]4(C)[C@H]3CC[C@@]12C
> 10 µM
4) CC1(C)OC[C@H]([C@@H]2CC[C@]3(C)C4=CC[C@H]5C(C)(C)[C@H](O)CC[C@]5(C)[C@H]4CC[C@@]23C)C[C@@H](O)[C@@H]1O
> 10 µM
5) C[C@@H](C[C@@H](O)[C@H](O)C(C)(C)O)[C@@H]1CC=C2[C@]3(C)[C@H](O)C[C@H]4C(C)(C)C(=O)CC[C@]4(C)[C@H]3CC[C@]21C
> 10 µM

Exercise: Quick one: IC50 for "CCOC(=O)CC[C@]1(C)[C@H]2CC[C@@]3(C)[C@H]([C@@H](C)CC/C=C(\C)CO)CC[C@]3(C)C2=CC[C@H]1C(C)(C)O" ?
Key: > 10 µM

Exercise: I am curious: what IC50 value has been reported for "CC(C)(O)[C@H]1OC[C@H]([C@H]2CC[C@]3(C)C4=CC[C@H]5C(C)(C)C(=O)CC[C@]5(C)[C@H]4CC[C@@]23C)C[C@H]1O" ?
Key: 7 µM

----------
Method notes: Cytotoxicity against human MKN28 cells assessed as inhibition of cell proliferation after 48 hrs by MTT assay
Type: functional, cell-based
Reported conditions: MKN-28, 48 h
// reported IC50 per item

Look over these answered cases.
1) C[C@@H](C[C@@H](O)[C@H](O)C(C)(C)O)[C@@H]1CC[C@]2(C)C3=C(C(=O)C[C@@]12C)[C@@]1(C)CCC(=O)C(C)(C)[C@@H]1CC3=O
> 10 µM
2) CC1(C)OC[C@H]([C@@H]2CC[C@]3(C)C4=CC[C@H]5C(C)(C)[C@H](O)CC[C@]5(C)[C@H]4CC[C@@]23C)C[C@@H](O)[C@@H]1O
> 10 µM
3) COC1OC(C=C(C)C)C[C@H]1[C@@H]1CC[C@]2(C)C3=CC[C@H]4C(C)(C)[C@H](O)CC[C@]4(C)[C@H]3CC[C@@]12C (stereo not given in full)
> 10 µM
4) CCO[C@@H]1O[C@H]([C@@H](O)C(C)(C)O)C[C@H]1[C@@H]1CC[C@]2(C)C3=CC[C@H]4C(C)(C)[C@@H](O)CC[C@]4(C)C3=CC[C@@]12C
9.1 µM

# context switch: different compound, same IC50
Exercise: For "CCO[C@@H]1O[C@@H](C=C(C)C)C[C@H]1[C@@H]1CC[C@]2(C)C3=CC[C@H]4C(C)(C)[C@@H](O)CC[C@]4(C)[C@H]3CC[C@@]12C" , what is its reported IC50?
Key: 7.9 µM
